All values here come from PubChem BioAssay (NCI).

System: CCRF-CEM leukemia
Test: NCI-60 one-dose screen, 48 h
Conditions: 10 µM unless noted
About 83,000 compounds went through this panel and 20% of them were active in at least one assay; those are over-represented in the sample as a whole. The source made the active and inactive calls. Rule for the calls: active = growth percent below 10; inactive = the rest.
Just give me one of these, please: active, inactive

Observe how each entry below is paired with its result.
Molecule: CCOC(=O)C1=C(N)Oc2c(sc3c(F)cccc23)C1c1ccc(O)cc1 (centres undefined)
Group label: inactive
//
Molecule: Cc1cc(=O)oc2cc(OCc3nn4c(Nc5nc6ccccc6s5)c(-c5ccccc5)nc4s3)ccc12
Group label: inactive
//
Molecule: CCn1cc(C(=O)O)c(=O)c2cc(F)c(N3CCN(CC(=O)Nc4ccc(S(=O)(=O)Nc5nccc(C)n5)cc4)C(C)C3)c(F)c21 (centres undefined)
Group label: inactive
//
Molecule: O=C(NNC(=O)c1ccc(NC(=O)c2ccccn2)cc1)Nc1ccc([N+](=O)[O-])cc1
Group label: inactive

Ask | Tell me the recorded outcome of this test for COc1cc(-c2csc(NC(=O)c3ccc(N4CCOCC4)c(C(F)(F)F)c3)n2)cc(OC)c1OC .
Reply | inactive

Ask | Now consider COc1c(B(O)O)cccc1-c1nc2c(F)cc3[nH]ncc3c2c2c1CCCC2 and answer again.
Reply | inactive

Ask | Also, COc1ccc(-c2noc(C(=O)O)c2-c2cc(OC)c(OC)c(OC)c2)cc1 please.
Reply | active

Ask | Try the molecule C#Cc1c2c(c(OC)c3c1OCO3)[C@H]([C@H]1OC(=O)c3c1ccc(OC)c3OC)N(C)CC2
Reply | inactive

Ask | Then this molecule: Nc1n[nH]c2ccc([C@H]3[C@@H]4C5CCC(C5)[C@@H]4c4c(ccc5[nH]ncc45)N3S(=O)(=O)C3CC3)cc12 (some centres undefined)
Reply | inactive

Ask | Now this one: CCN(CC)CCn1c2ccc(O)cc2c2sc3cc(O)ccc3c(=O)c21
Reply | inactive

Ask | Another molecule to check: CC1CN(S(=O)(=O)c2oc(-c3ccc(Cl)cc3)nc2C#N)CC(C)O1 (centres undefined)
Reply | active

Ask | Continue with NC(=O)C(=O)c1ccccc1NC=O
Reply | inactive

Ask | C=CC(=O)N1CCN(c2cccc(Oc3nccc(Nc4nnc(-c5ccc(Br)cc5)s4)n3)c2)CC1 , same question.
Reply | inactive

Ask | Try this molecule too: Cc1nc2sc(C(=O)Nc3ccc(Br)cc3)c(N)c2cc1C(O)c1ccccc1 (centres undefined)
Reply | inactive

###

Tested on: CCRF-CEM leukemia
Assay: NCI-60 one-dose screen, 48 h
Conditions: 10 µM unless noted
This is part of a sample that, as a whole, favours compounds with a hit. Of some 83,000 tested, about 20% had one in any assay. Active and inactive are the calls of the source. The calls were made as follows: active = growth percent below 10; inactive = the rest.
Output constraint: value belongs to 1 (active), 0 (inactive)

Compound: CS(=O)(=O)Nc1cc(-c2ccc3ncnc(Nc4ccc5c(cnn5Cc5ccc(F)cc5)c4)c3c2)cnc1Cl
Subject of test: CCRF-CEM leukemia
Group label: 0
//
Compound: CCCc1c(OC(=O)c2ccccc2)nc2[nH]c(=O)sc2c1C
Subject of test: CCRF-CEM leukemia
Group label: 0
//
Compound: COC(=O)c1nc(-c2ccc(C)cc2)oc1S(=O)(=O)c1cccc(OC)c1
Subject of test: CCRF-CEM leukemia
Group label: 1
//
Compound: COc1ccc(Nc2nnc(-c3ccc(OC)c(OC)c3)o2)cc1
Subject of test: CCRF-CEM leukemia
Group label: 0
//
Compound: Nc1nc2ccc(-c3nc4ccc5[nH]ncc5c4c4c3CCCC4)cc2s1
Subject of test: CCRF-CEM leukemia
Group label: 0

Ask | Identify the outcome logged in this assay for the compound shown: c1ccc2cc(C[n+]3ccn(CCCCCCCCCCn4cc[n+](Cc5ccc6ccccc6c5)c4)c3)ccc2c1
Reply | 1

Ask | Can you check Fc1cnccc1C1CC(c2ccc(N3CCNCC3)cc2)=NN1 (stereo unspecified) next?
Reply | 0

###

Test system: SF-295 CNS
Test: NCI-60 one-dose screen, 48 h (100 = growth as untreated, 0 = no growth, -100 = all killed)
Settings: 10 µM unless noted
This is part of a sample that, as a whole, favours compounds with a hit. Of some 83,000 tested, about 20% had one in any assay.
Exam item: assign criterion met to entries whose growth is below 80% and criterion not met to entries at or above 80%. Note that a value of exactly 80% receives criterion not met.

Example entries and their recorded answers appear below.
Smiles repr: CCOC(=O)c1cc2c(n1C)-c1nc(NC(C)=O)sc1CCC2
Group label: criterion not met
//
Smiles repr: Fc1ccc(CNc2c3ccccc3nc3ccccc23)c(F)c1
Group label: criterion met
//
Smiles repr: CCOC(=O)c1ccc2c(c1)nc(-c1ccccc1)n2C1CCCCC1
Group label: criterion not met

Then there is this molecule:
Ask | Please determine if Cc1cn(-c2cc(NC(=O)c3cccc(C#Cc4cccc5[nH]nc(N)c45)c3)cc(C(F)(F)F)c2)cn1 is below 80% in terms of growth.
Reply | criterion met

###

Tested on: HCC-2998 colon
Test: NCI-60 one-dose screen, 48 h
Settings: 10 µM unless noted
About 83,000 compounds went through this panel and 20% of them were active in at least one assay; those are over-represented in the sample as a whole. The source made the active and inactive calls. How the source made its calls: active means growth percent below 10; inactive means the rest.
Outcome (select one): True = active, False = inactive

Past entries and their recorded results:
Molecule: O=S(=O)(Nc1cc(Cl)ccc1Cl)c1ccc(-c2cnc(C3CC3)o2)cc1
Group label: False
--
Molecule: C#CCOC(=O)/C=C/c1cn(-c2ccccc2)nc1-c1ccc(OC)cc1
Group label: False
--
Molecule: c1ccc2cc(C[n+]3ccn(CCCCCCCCCCn4cc[n+](Cc5ccc6ccccc6c5)c4)c3)ccc2c1
Group label: False

Ask | Please let me know the test result on file for O=C1/C(=C\c2ccc3nccnc3c2)SC(=S)N1CCc1ccc(O)cc1 .
Reply | False

Ask | // next record O=C(CSc1oc(-c2ccccc2)nc1S(=O)(=O)c1ccccc1)Nc1ccc(F)cc1
Reply | False

Ask | Follow-up item: Clc1ccc(/C=N\N=C\c2ccc(Cl)c(Cl)c2)cc1Cl
Reply | False

Ask | Follow-up entry: O=C1c2ccccc2-c2c1c1c(=O)[nH]c3ccccc3c1n2Cc1ccccc1
Reply | False

###

Tested on: BT-549 breast
Assay: NCI-60 one-dose screen, 48 h (100 = growth as untreated, 0 = no growth, -100 = all killed)
Settings: 10 µM unless noted
Compounds without any hit were thinned out: in the full panel of roughly 83,000, 20% have a hit. Calls of active or inactive are those of the source. The calls were made as follows: active = growth percent below 10; inactive = the rest.
Property measured: growth

Solved entries:
Compound: CCn1cc(C(=O)O)c(=O)c2cc(F)c(N3CCN(CC(=O)Nc4ccc(S(=O)(=O)Nc5nccc(C)n5)cc4)C(C)C3)c(F)c21 (centres undefined)
Subject of test: BT-549 breast
Result: 132% (inactive)
--
Compound: N#Cc1c(-c2ccccc2)cc(-c2ccc(Nc3nc(Nc4ccc(Cl)cc4)nc(Nc4ccc(Cl)cc4)n3)cc2)nc1N
Subject of test: BT-549 breast
Result: -68.1% (active)
--
Compound: CCCOC(=O)Nc1nc2ccc(SCC(C)C)cc2s1
Subject of test: BT-549 breast
Result: 52.3% (inactive)

Next item in the queue.
Ask | Fill blank: measured growth of the compound O=C(Nc1cccc(-c2ccc(N3CCOCC3)nn2)c1)Nc1cccc(C(F)(F)F)c1 is ____.
Reply | 40.9% (inactive)

###

Test system: T-47D breast
Assay: NCI-60 one-dose screen, 48 h (100 = growth as untreated, 0 = no growth, -100 = all killed)
Conditions: 10 µM unless noted
About 83,000 compounds went through this panel and 20% of them were active in at least one assay; those are over-represented in the sample as a whole.
Measured growth by item
Could you give me the number in %? Just the number is fine.

Smiles repr: Cc1ccc(-c2nc([P+](c3ccccc3)(c3ccccc3)c3ccccc3)c(S(=O)(=O)c3ccc(C)cc3)o2)cc1
growth [%]: 18.6

Smiles repr: Cc1[nH]c(C(=O)Nc2ccccc2OC2CCNCC2)c(Cl)c1Cl
growth [%]: -4.05

Smiles repr: CC1CCN(CCOc2ccc(CNc3ccc4nc(CCC5CCCCC5)[nH]c4c3)cc2)CC1
growth [%]: -32.8

Ask | What value of measured growth is listed for C#CCOc1cccc(Nc2ncnc3cc(NC(=O)C=C)ccc23)c1 ?
Reply | 8.13

Ask | Same thing, different compound: Cc1cccc(/C=C/c2c(C(=O)/C=C/c3ccccc3)c(C)nc3ccccc23)c1
Reply | -4.51

###

Recorded growth for the following compounds
Tested on: HCC-2998 colon
Test: NCI-60 one-dose screen, 48 h (100 = growth as untreated, 0 = no growth, -100 = all killed)
Details: 10 µM unless noted
Compounds without any hit were thinned out: in the full panel of roughly 83,000, 20% have a hit.
Dear colleague, please return just the value in %, with no unit written.

// worked examples, growth included
Compound: Cc1ccc(-c2nc(N3CCCNCC3)c3oc(-c4ccc(C)cc4)nc3n2)cc1
Unit label: %
growth: 40.9

Compound: Cc1cn(-c2cc(NC(=O)c3cccc(C#Cc4cccc5[nH]nc(N)c45)c3)cc(C(F)(F)F)c2)cn1
Unit label: %
growth: 39.1

Compound: OCCn1cc(-c2nc(-c3c[nH]c4ncccc34)cs2)c2ccccc21
Unit label: %
growth: 52

Compound: O=C(Nc1cccc(-c2ccc(N3CCOCC3)nn2)c1)Nc1cccc(C(F)(F)F)c1
Unit label: %
growth: 109

Compound: Cc1cc(C)c2c(c1)N(C)c1ncnc(-n3cnc4cc(C)ccc43)c1CC2C (centres undefined)
Unit label: %
growth: 52.1

Ask | Look up growth for this compound: Cc1cccc(/C=C2\CN(C(=O)OC(C)(C)C)C/C(=C\c3cccc(C)c3)C2=O)c1
Reply | 103

Ask | Same question, COC(=O)[C@]12CCC(C)(C)C[C@H]1[C@H]1/C(=N/OCCc3nn[nH]n3)C[C@@H]3[C@@]4(C)CC[C@H](OC(C)=O)C(C)(C)[C@@H]4CC[C@@]3(C)[C@]1(C)CC2 this time
Reply | 54.7

Ask | Entry CS(=O)(=O)Nc1cncc(-c2ccc3ncnc(Nc4cncc(Cl)c4)c3c2)c1 please
Reply | 95

Ask | Then this compound: COc1ccc(OC)c(/C=N/Nc2ncnc3c2c(C)nn3C)c1
Reply | 102
